target-entity: CDK4 (Homo sapiens)
Construct: endogenous in cells
Sequence (P11802 whole entry): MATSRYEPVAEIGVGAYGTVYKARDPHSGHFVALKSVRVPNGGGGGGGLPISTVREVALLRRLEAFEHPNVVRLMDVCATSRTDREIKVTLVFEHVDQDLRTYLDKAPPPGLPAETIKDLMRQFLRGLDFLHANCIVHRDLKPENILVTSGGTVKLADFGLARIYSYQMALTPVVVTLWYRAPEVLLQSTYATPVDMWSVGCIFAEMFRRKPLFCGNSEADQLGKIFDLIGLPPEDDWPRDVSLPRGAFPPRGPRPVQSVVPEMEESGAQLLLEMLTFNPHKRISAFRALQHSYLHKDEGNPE
assay-explanation: CDK4 degradation (DC50, Dmax)
Format: cell-based
measure: Dmax

Examples from the recorded data:
compound	Dmax
CC(=O)c1c(C)c2cnc(Nc3ccc(N4CCN(C(=O)N5CCC(N6CCN(c7ccc8c(c7)C(=O)N(C7CCC(=O)NC7=O)C8=O)CC6)CC5)CC4)cn3)nc2n(C2CCCC2)c1=O (stereo not drawn) [Compound 3]	> 50%
CC(=O)c1c(C)c2cnc(Nc3ccc(N4CCN(CC5CCN(c6cccc7c6C(=O)N(C6CCC(=O)NC6=O)C7=O)CC5)CC4)cn3)nc2n(C2CCCC2)c1=O (stereo not drawn) [Compound 78]	> 60%
Cc1nc2c(F)cc(-c3nc(Nc4ccc(CC5CCN(CC6CN(c7ccc(NC8CCC(=O)NC8=O)cc7)C6)CC5)cn4)ncc3F)cc2n1C(C)C (stereo not drawn) [Compound 142]	> 80%
Cc1nc2c(F)cc(-c3nc(Nc4ccc(CN5CCN(C(=O)C6CN(c7ccc8c(c7)C(=O)N(C7CCC(=O)NC7=O)C8=O)C6)CC5)cn4)ncc3F)cc2n1C(C)C (stereo not drawn) [Compound 135]	> 80%
CC(=O)c1c(C)c2cnc(Nc3ccc(C4CCN(C(=O)C5CN(c6ccc7c(c6)C(=O)N(C6CCC(=O)NC6=O)C7=O)C5)CC4)cn3)nc2n(C2CCCC2)c1=O (stereo not drawn) [Compound 129]	> 80%

q: Given CN(C)C(=O)c1cc2cnc(Nc3ccc(N4CCN(CCCNc5ccc6c(c5)CN(C5CCC(=O)NC5=O)C6=O)CC4)cn3)nc2n1C1CCCC1 (stereo not drawn) [Compound 76] , state its recorded Dmax.
a: > 80%
